- Target or test system: Calpain
- Experiment: Calpain enzyme assay
- Condition info: Ki by Morrison equation; pH 7.5, 5 mM CaCl2
pKi: −log10 of the molar value.
Kind request: treat 8 as inclusive, so pKi at 8 or higher is Condition met, anything lower is Condition not met.

Solved entries:
CC(NC(=O)C(Cc1ccccc1)NC(=O)c1ccccc1)C(=O)C(=O)NC(Cc1ccccc1)C(=O)NC(C)(C)C(N)=O (stereo not shown) : Condition not met
CC(NC(=O)C(Cc1ccccc1)NC(=O)Cc1ccccc1)C(=O)C(=O)NC(Cc1ccccc1)C(=O)NC(Cc1ccc(-c2ccccc2)cc1)C(N)=O (stereo not shown) [PHELIX248] : Condition not met

Please indicate if the recorded pKi for CC(C)CC(NC(=O)Cc1ccccc1)C(=O)NC(C)C(=O)C(=O)NC(C)C(=O)NC(C)(C)C(N)=O (stereo not shown) meets or exceeds 8.
Condition not met

In plain terms: is recorded pKi at least 8 for CCC(C)C(NC(=O)C(CC(C)C)NC(=O)OCc1ccccc1)C(=O)C(=O)NC(Cc1cnc[nH]1)C(=O)NC(Cc1ccc2ccccc2c1)C(N)=O (stereo not shown) ?
Condition not met

Could you please find out whether CCC(C)C(NC(=O)C(=O)C(C)NC(=O)C(Cc1cccc(C(F)(F)F)c1)NC(=O)Cc1ccccc1)C(=O)NC(C)(C)C(=O)O (stereo not shown) has pKi that meets 8 or exceeds it?
Condition not met

Answer whether pKi of CCCCC(NC(=O)C(=O)C(C)NC(=O)C(Cc1ccccc1)NC(=O)Cc1ccccc1)C(=O)NC(C)(C)C(N)=O (stereo not shown) is greater than or equal to 8.
Condition not met

Threshold query (pKi >= 8) on CC(NC(=O)[C@H](Cc1ccccn1)NC(=O)Cc1ccccc1)C(=O)C(=O)N[C@@H](Cc1ccccc1)C(=O)N[C@@H](Cc1ccccc1)C(N)=O (stereo partly shown)
Condition not met

Confirm if pKi reported for the compound CC(NC(=O)C(Cc1ccc2ccccc2c1)NC(=O)Cc1ccccc1)C(=O)C(=O)NC(Cc1ccccc1)C(=O)NC(C)(C)C(N)=O (stereo not shown) is 8 or above.
Condition not met

* * *

- Target or test system: Calpain
- Experiment: Calpain enzyme assay
- Condition info: Ki by Morrison equation; pH 7.5, 5 mM CaCl2
Parameter: pKi
Keep in mind that pKi stands for -log10 of concentration in molar terms.

Look over these answered cases.
CCC(C)C(NC(=O)C(CC(C)C)NC(=O)OCc1ccccc1)C(=O)C(=O)NC(CCCNC(=N)N)C(=O)NC(Cc1ccc2ccccc2c1)C(N)=O (stereo not shown) [PHELIX329] : 6.96
CCC(C)C(NC(=O)C(CC(C)C)NC(=O)OCc1ccccc1)C(=O)C(=O)NCC(=O)NC(Cc1cc2ccccc2[nH]1)C(N)=O (stereo not shown) : 8.00
CCC(C)C(NC(=O)C(CC(C)C)NC(=O)Nc1ccccc1)C(=O)C(=O)NCC(=O)NC(Cc1ccc2ccccc2c1)C(N)=O (stereo not shown) : 8.84
CCC(C)C(NC(=O)C(CC(C)C)NC(=O)OCc1ccccc1)C(=O)C(=O)NC(CCCNC(N)=O)C(=O)NC(Cc1ccc2ccccc2c1)C(N)=O (stereo not shown) : 8.83
CCC(C)C(NC(=O)C(CC(C)C)NC(=O)Cc1ccncc1)C(=O)C(=O)NCC(=O)NC(Cc1ccc2ccccc2c1)C(N)=O (stereo not shown) : 9.01
CC(C)CC(NC(=O)OCc1ccccc1)C(=O)NC(C)C(=O)C(=O)N1CC(C(=O)NC(Cc2ccccc2)C(N)=O)C1 (stereo not shown) : 7.34
CCC(C)C(NC(=O)C(CC(C)C)NC(=O)OCc1ccccc1)C(=O)C(=O)NCC(=O)NC(Cc1ccccc1)C(N)=O (stereo not shown) : 8.79

Okay, now this compound:
Reported pKi for Calpain, given CCC(C)C(NC(=O)C(CC(C)C)NC(=O)OCc1ccccc1)C(=O)C(=O)NCC(=O)NCc1ccc2ccccc2c1 (stereo not shown) ?
8.22

* * *

pKi reference
- Target or test system: Cathepsin L (Homo sapiens, UniProt P07711)
- Sequence (P07711 114-333, species assumed): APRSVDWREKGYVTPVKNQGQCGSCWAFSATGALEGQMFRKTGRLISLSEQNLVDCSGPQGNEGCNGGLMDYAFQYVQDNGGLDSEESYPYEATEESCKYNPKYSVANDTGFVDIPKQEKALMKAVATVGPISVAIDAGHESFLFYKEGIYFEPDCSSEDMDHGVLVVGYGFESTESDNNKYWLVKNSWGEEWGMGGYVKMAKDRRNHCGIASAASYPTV
*1 amine or outer side, *2 acyl side, *3 side chain or, on linkers, in order; H or OH if unused. Where a SMILES comes first, the peptide text is derived from it. [ ]: non-standard residue; d: D form. The star is where a group is joined. 2Nal = N[CH](Cc1ccc2ccccc2c1)C(=O)O; X1 = CCC(C)C(N[*:1])C(=O)C(=O)[*:2]; Cbz = O=C(OCc1ccccc1)*
Lab note — pKi values are minus log10 of concentrations in M.

For orientation, consider the following solved cases.
CC(NC(=O)C(Cc1ccccc1)NC(=O)Cc1ccccc1)C(=O)C(=O)NC(CC1CCCCC1)C(=O)NC(C)(C)C(=O)O (stereo not shown) : 7.04
CCC(C)C(NC(=O)C(CC(C)C)NC(=O)Cc1ccncc1)C(=O)C(=O)NCC(=O)N(C)C(Cc1ccccc1)C(N)=O (stereo not shown) : 9.26
CCC(C)C(NC(=O)C(CC(C)C)NC(=O)OCc1ccccc1)C(=O)C(=O)N1CC(C(=O)NCc2ccc(C(=N)N)cc2)C1 (stereo not shown) : 6.86
CCC(C)C(NC(=O)C(CC(C)C)NC(=O)OCc1ccccc1)C(=O)C(=O)NCC(=O)NC(Cc1ccccc1)C(N)=O (stereo not shown) : 8.42
Cc1cccc(CC(=O)NC(Cc2ccccc2)C(=O)NC(C)C(=O)C(=O)NC(Cc2ccccc2)C(=O)NC(C)(C)C(N)=O)c1 (stereo not shown) : 7.73

What reported pKi corresponds to CC(NC(=O)C(Cc1ccc2ccccc2c1)NC(=O)Cc1ccccc1)C(=O)C(=O)NC(Cc1ccccc1)C(=O)NC(C)(C)C(N)=O (stereo not shown) on Cathepsin L (Homo sapiens, UniProt P07711)?
8.19

Give the reported pKi for CCC(C)C(NC(=O)C(=O)C(C)NC(=O)C(CC(C)C)NC(=O)Cc1ccccc1)C(=O)NC(C)(C)C(=O)O (stereo not shown) (system: Cathepsin L (Homo sapiens, UniProt P07711)).
6.20

Return pKi measured with Cathepsin L (Homo sapiens, UniProt P07711) given this molecule: CC(NC(=O)C(Cc1cccnc1)NC(=O)Cc1ccccc1)C(=O)C(=O)NC(Cc1ccccc1)C(=O)NC(C)(C)C(N)=O (stereo not shown)
6.66

Record CCC(C)C(NC(=O)C(=O)C(C)NC(=O)C(Cc1ccccc1)NC(=O)Cc1cccc2ccccc12)C(=O)NC(C)(C)C(=O)O (stereo not shown) : what is its pKi with Cathepsin L (Homo sapiens, UniProt P07711)?
6.37

Request body: readout pKi, system Cathepsin L (Homo sapiens, UniProt P07711), query CC(NC(=O)C(Cc1cccc(F)c1)NC(=O)Cc1ccccc1)C(=O)C(=O)NC(Cc1ccccc1)C(=O)NC(C)(C)C(N)=O (stereo not shown) . Return the value.
7.69

Please provide the recorded pKi for CCC(C)C(NC(=O)C(=O)C(C)NC(=O)C(Cc1ccc(F)cc1)NC(=O)Cc1ccccc1)C(=O)NC(C)(C)C(=O)O (stereo not shown) , tested on Cathepsin L (Homo sapiens, UniProt P07711).
6.28

Item CCC(C)C(NC(=O)C(CC(C)C)NC(=O)C(Cc1ccccc1)NC(=O)OCc1ccccc1)C(=O)C(=O)NCC(=O)NC(Cc1ccc2ccccc2c1)C(N)=O (stereo not shown) [PHELIX270] (Cbz-FL[X1]G[2Nal]-NH2; configuration not given here) with Cathepsin L (Homo sapiens, UniProt P07711) - pKi?
8.74

* * *

Examples of molecules with documented IC50 follow.
- System: MERS WT
- Experiment: microbe, parasite or virus in culture
- Assay type: cell-based
- Condition info: Middle East respiratory syndrome-related coronavirus, read-out: MERS WT (μM)
*1 amine or outer side, *2 acyl side, *3 side chain or, on linkers, in order; H or OH if unused. Where a SMILES comes first, the peptide text is derived from it. [ ]: non-standard residue; d: D form. The star is where a group is joined. ξ: configuration not given here. ξβ3hPhe(2-oxo) = O=C(C(=O)[*:2])C(Cc1ccccc1)N[*:1]; Cbz = O=C(OCc1ccccc1)*

Some molecules with recorded IC50:
CC(C)CC(NC(=O)OCc1ccccc1)C(=O)NC(C)C(=O)C(=O)NCCC(=O)NC(Cc1cccc(C#N)c1)C(N)=O (stereo not drawn) : > 10 µM
CC(C)CC(NC(=O)C(Cc1ccccc1)NC(=O)OCc1ccccc1)C(=O)NC(Cc1ccccc1)C(=O)C(=O)NC(CCCNC(=N)N)C(N)=O (stereo not drawn) : > 30 µM
CC(C)CC(NC(=O)OCc1ccccc1)C(=O)NC(C)C(=O)C(=O)N1CC(C(=O)NC(Cc2ccccc2)C(N)=O)C1 (stereo not drawn) : 56 µM
CC(NC(=O)C(Cc1cccc2ccccc12)NC(=O)Cc1ccccc1)C(=O)C(=O)NC(Cc1ccccc1)C(=O)NC(C)(C)C(N)=O (stereo not drawn) : > 10 µM
CC(C)CC(NC(=O)OCc1ccccc1)C(=O)NC(Cc1ccccc1)C(=O)C(=O)NC(C)C(=O)NC(CCC(=O)O)C(=O)NC(CCCNC(=N)N)C(N)=O (stereo not drawn) [PHELIX252] (Cbz-L[ξβ3hPhe(2-oxo)]AER-NH2; configuration not given here) : > 30 µM

The record that follows has no IC50 shown yet.
Name the reported IC50 value associated with the molecule CC(NC(=O)C(Cc1ccccc1)NC(=O)Cc1ccccc1)C(=O)C(=O)NC(Cc1cccc(C(F)(F)F)c1)C(=O)NC(Cc1ccc(-c2ccccc2)cc1)C(N)=O (stereo not drawn)
2.68 µM
